System: SNB-19
Assay: NCI tumour cell line growth inhibition, 48 h
Activity calls are given as the source filed them. No stated cut-off is given here; in the data, active = GI50 up to about 1.1 µM and inactive = higher.
A correct response names exactly one class from active, inactive

As a guide, the following entries are already answered.
compound | assigned_class
CC(=O)NC1=CC(=O)C=C(Cl)C1=O | inactive
CC1=C(O)C(=O)[C@@H]2O[C@@H]2C1=O | inactive
C#CCOCC12C=CC(O1)C1C(=O)N(C)C(=O)C12 (configuration not stated) | inactive
CC(C)N(C(=O)C12C3C4C5(C#N)C3C1(C#N)C5C42C#N)C(C)C (configuration not stated) | inactive
Nn1c(Sc2nc3ccccc3c(=O)n2N)nc2ccccc2c1=O | inactive
Cc1ccc([N+](=O)[O-])cc1NC(=O)C(=O)Cc1cc(=O)oc2cc(O)ccc12 | inactive
COC(=O)C(=O)C(C(=O)C(=O)Nc1ccc(C)c(C)c1)c1nc2ccc([N+](=O)[O-])cc2nc1O (configuration not stated) | inactive
CSc1ccc(OCC2OC2O)cc1 (configuration not stated) | inactive
Ic1cc2c(cc1C1SCCCS1)OCO2 | inactive
COC(=O)[C@H]1C=NN[C@@H]1C(=O)N1[C@H]2CC3CC[C@@]2(CS1(=O)=O)C3(C)C | inactive

### Prompt What did this assay record as the result for N#CC(OC1OC(COC2OC(CO)C(O)C(O)C2O)C(O)C(O)C1O)c1ccccc1 (configuration not stated) ?
### Response inactive

### Prompt What did this assay record as the result for Cl[Si]1(Cl)Oc2ccccc2O[Si](Cl)(Cl)Oc2ccccc2O1 ?
### Response inactive

### Prompt What did this assay record as the result for CC(=O)OCCOCNC(=S)N/N=C/c1ccc2ccccc2n1 ?
### Response inactive

### Prompt What did this assay record as the result for Cc1ccc(C2(c3ccc(Cl)cc3)c3ccccc3C3=NCCN32)cc1 (configuration not stated) ?
### Response inactive

### Prompt What did this assay record as the result for O=c1oc2c3ccc4ccccc4c3n(CCN3CCCCC3)c2c2ccccc12 ?
### Response inactive

### Prompt What did this assay record as the result for CC1CN=C(N(C)C(=O)Nc2ccc(Cl)cc2)S1 (configuration not stated) ?
### Response inactive

### Prompt What did this assay record as the result for CC(=O)Nc1ccc2c3c(cc(O)c2c1)N(C(=O)CCCCCC(=O)N1CC(CCl)c2c1cc(O)c1cc(NC(C)=O)ccc21)CC3CCl (configuration not stated) ?
### Response active

### Prompt What did this assay record as the result for O=C1NC2(CCNCC2)Oc2ccccc21 ?
### Response inactive

### Prompt What did this assay record as the result for COC(=O)c1ccc(/N=N/N(C)CO)cc1 ?
### Response inactive

### Prompt What did this assay record as the result for CC(C)c1cccc(C(C)C)c1NC(=O)C(=O)C1SC(=S)NC1=O (configuration not stated) ?
### Response inactive
